Measured values drawn from paper PMC8151276 for this set.

# system_under_test: C3AR1 (Homo sapiens, UniProt Q16581)
# Construct: purchased Promega (in-house HiBiT-GPCR construct library, NanoBRET)
# Sequence (Q16581 whole entry): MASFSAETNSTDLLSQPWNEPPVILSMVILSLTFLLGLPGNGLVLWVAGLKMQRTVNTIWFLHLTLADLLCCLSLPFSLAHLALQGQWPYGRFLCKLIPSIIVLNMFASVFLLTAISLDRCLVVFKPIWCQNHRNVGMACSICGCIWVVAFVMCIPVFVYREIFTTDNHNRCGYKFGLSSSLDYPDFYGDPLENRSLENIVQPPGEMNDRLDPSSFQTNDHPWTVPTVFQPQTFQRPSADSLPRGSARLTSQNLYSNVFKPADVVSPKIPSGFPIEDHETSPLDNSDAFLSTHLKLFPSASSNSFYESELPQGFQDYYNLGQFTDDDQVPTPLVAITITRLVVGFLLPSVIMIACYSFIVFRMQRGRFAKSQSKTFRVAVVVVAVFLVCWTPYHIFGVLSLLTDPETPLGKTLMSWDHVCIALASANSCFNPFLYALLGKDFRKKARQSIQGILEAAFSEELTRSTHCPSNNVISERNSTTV
# experiment_description: NanoBRET screen HiBiT-C3AR1 in HEK293
# Assay type: binding
# condition_details: C3AR1; tracer 1μM
recorded_endpoint: NanoBRET Fold Response
Give only the figure.

Reference set, count: 4
Req: Param item = COc1ccccc1N1CCN(CCCCN2C(=O)c3ccc(CNC(=O)CCOCCOCCOCCOCCNC(=O)CCc4ccc5n4[B-](F)(F)[N+]4=C(c6ccc[nH]6)C=CC4=C5)cc3C2=O)CC1 ; retrieve measured NanoBRET Fold Response.
Resp: 0.96

Req: Param item = CCCn1c(=O)c2[nH]c(-c3ccc(OCC(=O)NCCNC(=O)CCOCCNC(=O)c4ccc(CNC(=O)CCc5ccc6n5[B-](F)(F)[N+]5=C(c7ccc[nH]7)C=CC5=C6)cc4)cc3)nc2n(CCC)c1=O ; retrieve measured NanoBRET Fold Response.
Resp: 0.96

Req: Param item = COc1ccccc1N1CCN(CCCCN2C(=O)c3ccc(CNC(=O)CCOCCNC(=O)c4ccc(CNC(=O)CCc5ccc6n5[B-](F)(F)[N+]5=C(c7ccc[nH]7)C=CC5=C6)cc4)cc3C2=O)CC1 ; retrieve measured NanoBRET Fold Response.
Resp: 0.93

Req: Param item = CC(C)N(CC[C@H](c1ccccc1)c1cc(CCNC(=O)c2ccc(CNC(=O)CCc3ccc4n3[B-](F)(F)[N+]3=C(c5ccc[nH]5)C=CC3=C4)cc2)ccc1O)C(C)C ; retrieve measured NanoBRET Fold Response.
Resp: 0.99

--- query ---
Req: Param item = Cc1cc2c(s1)Nc1ccccc1N=C2N1CCN(CCCNC(=O)CCOCCOCCOCCOCCNC(=O)CCc2ccc3n2[B-](F)(F)[N+]2=C(c4ccc[nH]4)C=CC2=C3)CC1 ; retrieve measured NanoBRET Fold Response.
Resp: 1.01

###

# system_under_test: OPRD1 (Homo sapiens)
# Construct: purchased Promega (in-house HiBiT-GPCR construct library, NanoBRET)
# Sequence (P41143 whole entry): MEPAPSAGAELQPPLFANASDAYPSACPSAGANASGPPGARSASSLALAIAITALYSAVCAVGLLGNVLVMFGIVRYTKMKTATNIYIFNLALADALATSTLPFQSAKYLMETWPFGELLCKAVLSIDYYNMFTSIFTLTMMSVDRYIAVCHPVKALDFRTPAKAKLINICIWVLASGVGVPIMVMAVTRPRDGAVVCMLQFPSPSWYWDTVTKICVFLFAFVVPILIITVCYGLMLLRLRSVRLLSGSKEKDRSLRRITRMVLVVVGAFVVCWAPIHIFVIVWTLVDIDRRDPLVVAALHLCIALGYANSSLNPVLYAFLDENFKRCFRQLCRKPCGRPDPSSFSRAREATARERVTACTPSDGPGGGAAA
# experiment_description: NanoBRET screen HiBiT-OPRD1 in HEK293
# Assay type: binding
# condition_details: OPRD1; tracer 1μM
recorded_endpoint: NanoBRET Fold Response
Give only the figure.

Reference set, count: 4
Req: Param item = O=C(CCc1ccc2n1[B-](F)(F)[N+]1=C(c3ccc[nH]3)C=CC1=C2)NCc1ccc(C(=O)NCCOCCC(=O)N[C@@H]2CC[C@@]3(O)[C@H]4Cc5ccc(O)c6c5[C@@]3(CCN4CC3CC3)[C@H]2O6)cc1 [Naltrexone-3-NB590] ; retrieve measured NanoBRET Fold Response.
Resp: 1.52

Req: Param item = N#CN=C(NCCCOc1cccc(CN2CCCCC2)c1)NCCNC(=O)CCOCCOCCOCCOCCNC(=O)CCc1ccc2n1[B-](F)(F)[N+]1=C(c3ccc[nH]3)C=CC1=C2 [Aminopotentidine-2-NB590] ; retrieve measured NanoBRET Fold Response.
Resp: 1.02

Req: Param item = O=C(CCOCCOCCOCCOCCNC(=O)CCc1ccc2n1[B-](F)(F)[N+]1=C(c3ccc[nH]3)C=CC1=C2)NCCCN1CCN(C2=Nc3ccccc3Oc3ccc(Cl)cc32)CC1 [Loxapine-a-2-NB590] ; retrieve measured NanoBRET Fold Response.
Resp: 1.04

Req: Param item = Cc1cc2c(s1)Nc1ccccc1N=C2N1CCN(CCCNC(=O)CCOCCOCCOCCOCCNC(=O)CCc2ccc3n2[B-](F)(F)[N+]2=C(c4ccc[nH]4)C=CC2=C3)CC1 [Olanzapine-a-2-NB590] ; retrieve measured NanoBRET Fold Response.
Resp: 1.09

--- query ---
Req: Param item = O=C(CCc1ccc2n1[B-](F)(F)[N+]1=C(c3ccc[nH]3)C=CC1=C2)NCCOCCOCCNC(=O)OCCOCCN1CCN(C2=Nc3ccccc3Sc3ccccc32)CC1 [Quetiapine-a-2-NB590] ; retrieve measured NanoBRET Fold Response.
Resp: 0.89

###

# maps each entry to its NanoBRET Fold Response
# system_under_test: CXCR2 (Homo sapiens, UniProt P25025)
# Construct: purchased Promega (in-house HiBiT-GPCR construct library, NanoBRET)
# Sequence (P25025 1-360): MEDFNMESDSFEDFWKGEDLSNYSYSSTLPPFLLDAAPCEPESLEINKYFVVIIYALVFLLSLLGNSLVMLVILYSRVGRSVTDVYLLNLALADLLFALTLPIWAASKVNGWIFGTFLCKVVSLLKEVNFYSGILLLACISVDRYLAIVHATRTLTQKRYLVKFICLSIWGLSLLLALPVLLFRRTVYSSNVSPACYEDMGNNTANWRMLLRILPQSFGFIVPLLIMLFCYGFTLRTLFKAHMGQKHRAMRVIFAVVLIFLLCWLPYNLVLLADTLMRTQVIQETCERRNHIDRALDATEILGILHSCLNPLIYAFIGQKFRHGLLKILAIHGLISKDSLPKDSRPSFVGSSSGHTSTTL
# experiment_description: NanoBRET screen HiBiT-CXCR2 in HEK293
# Type: binding
# condition_details: CXCR2; tracer 0.1μM
Give only the figure.

Reference set, count: 2
Req: Param item = O=C(CCc1ccc2n1[B-](F)(F)[N+]1=C(c3ccc[nH]3)C=CC1=C2)NCc1ccc(C(=O)NCCOCCC(=O)N[C@@H]2CC[C@@]3(O)[C@H]4Cc5ccc(O)c6c5[C@@]3(CCN4CC3CC3)[C@H]2O6)cc1 [Naltrexone-3-NB590] ; retrieve measured NanoBRET Fold Response.
Resp: 0.81

Req: Param item = O=C(CCc1ccc2n1[B-](F)(F)[N+]1=C(c3ccc[nH]3)C=CC1=C2)NCCOCCOCCNC(=O)OCCOCCN1CCN(C2=Nc3ccccc3Sc3ccccc32)CC1 ; retrieve measured NanoBRET Fold Response.
Resp: 1.03

--- query ---
Req: Param item = COc1ccccc1N1CCN(CCCCN2C(=O)c3ccc(CNC(=O)CCOCCNC(=O)c4ccc(CNC(=O)CCc5ccc6n5[B-](F)(F)[N+]5=C(c7ccc[nH]7)C=CC5=C6)cc4)cc3C2=O)CC1 ; retrieve measured NanoBRET Fold Response.
Resp: 1.10

###

# system_under_test: MCHR2 (Homo sapiens)
# Construct: purchased Promega (in-house HiBiT-GPCR construct library, NanoBRET)
# Sequence (Q969V1 whole entry): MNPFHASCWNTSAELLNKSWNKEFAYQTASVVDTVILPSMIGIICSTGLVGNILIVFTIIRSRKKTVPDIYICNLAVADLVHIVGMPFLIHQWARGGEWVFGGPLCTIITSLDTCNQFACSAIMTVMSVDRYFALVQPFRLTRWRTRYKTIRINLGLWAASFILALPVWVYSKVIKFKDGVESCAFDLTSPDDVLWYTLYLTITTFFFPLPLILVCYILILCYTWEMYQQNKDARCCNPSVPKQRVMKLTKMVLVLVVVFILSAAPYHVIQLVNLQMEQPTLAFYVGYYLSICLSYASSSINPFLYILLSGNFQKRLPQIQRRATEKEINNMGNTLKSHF
# experiment_description: NanoBRET screen HiBiT-MCHR2 in HEK293
# Format: binding
# condition_details: MCHR2; tracer 1μM
Threshold rule: NanoBRET Fold Response greater than or equal to 1 is true (1); below that, false (0).

# count of solved cases: 5
Req: Does COc1ccccc1N1CCN(CCCCN2C(=O)c3ccc(CNC(=O)CCOCCNC(=O)c4ccc(CNC(=O)CCc5ccc6n5[B-](F)(F)[N+]5=C(c7ccc[nH]7)C=CC5=C6)cc4)cc3C2=O)CC1 have a reported NanoBRET Fold Response of at least 1?
Resp: false (0)

Req: Does O=C(CCc1ccc2n1[B-](F)(F)[N+]1=C(c3ccc[nH]3)C=CC1=C2)NCCOCCOCCNC(=O)OCCOCCN1CCN(C2=Nc3ccccc3Sc3ccccc32)CC1 have a reported NanoBRET Fold Response of at least 1?
Resp: false (0)

Req: Does Cc1nc2n(c(=O)c1CCN1CCC(c3noc4cc(F)ccc34)CC1)CCCC2OC(=O)NCCOCCOCCOCCOCCNC(=O)CCc1ccc2n1[B-](F)(F)[N+]1=C(c3ccc[nH]3)C=CC1=C2 (centres unmarked) have a reported NanoBRET Fold Response of at least 1?
Resp: false (0)

Req: Does COc1ccccc1N1CCN(CCCCN2C(=O)c3ccc(CNC(=O)CCOCCOCCOCCOCCNC(=O)CCc4ccc5n4[B-](F)(F)[N+]4=C(c6ccc[nH]6)C=CC4=C5)cc3C2=O)CC1 have a reported NanoBRET Fold Response of at least 1?
Resp: false (0)

Req: Does O=C(CCOCCOCCOCCOCCNC(=O)CCc1ccc2n1[B-](F)(F)[N+]1=C(c3ccc[nH]3)C=CC1=C2)NCCCN1CCN(C2=Nc3ccccc3Oc3ccc(Cl)cc32)CC1 have a reported NanoBRET Fold Response of at least 1?
Resp: true (1)

Others:
Req: Does CC(C)N(CC[C@H](c1ccccc1)c1cc(CCNC(=O)CCOCCOCCOCCOCCNC(=O)CCc2ccc3n2[B-](F)(F)[N+]2=C(c4ccc[nH]4)C=CC2=C3)ccc1O)C(C)C have a reported NanoBRET Fold Response of at least 1?
Resp: true (1)

Req: Does CCCn1c(=O)c2[nH]c(-c3ccc(OCC(=O)NCCNC(=O)CCOCCNC(=O)c4ccc(CNC(=O)CCc5ccc6n5[B-](F)(F)[N+]5=C(c7ccc[nH]7)C=CC5=C6)cc4)cc3)nc2n(CCC)c1=O have a reported NanoBRET Fold Response of at least 1?
Resp: false (0)

Req: Does N#CN=C(NCCCOc1cccc(CN2CCCCC2)c1)NCCNC(=O)CCOCCOCCOCCOCCNC(=O)CCc1ccc2n1[B-](F)(F)[N+]1=C(c3ccc[nH]3)C=CC1=C2 have a reported NanoBRET Fold Response of at least 1?
Resp: true (1)
